Measured switch fluorescence ratio values are reported for all entries that follow.
tested on: ATP; experiment: switch fluorescence ratio, 500 uM ATP over buffer (Cy3 cluster intensity, sum of 5 cycles each) (fold (ratio)); higher = stronger signal-on switching upon ATP binding; sequences stand for … in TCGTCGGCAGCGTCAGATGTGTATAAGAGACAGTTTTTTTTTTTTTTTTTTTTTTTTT…TC; details: aptamer strand: ATP DNA aptamer (quencher-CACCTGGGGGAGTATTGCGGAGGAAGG + anchor), 100 nM annealed; ATP concentration: 500 uM;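 note: ATP exposure 15 min at 22 °C before imaging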
# output: bare number, no unit

Observe how each entry below is paired with its result.
CGGTTGAATG 0.988
ATTTAGGTAG 1.02
GATTATGGCA 0.975
CTGGGACTTG 1
TGGCGTTGAT 0.984

*Q* So what's the measured switch fluorescence ratio for this one? `TTGTTTTCAT`
*A* 1.04

*Q* Check `TATCACTAGG` too.
*A* 1.02

*Q* Check `ATTTCTCTCT` too.
*A* 0.993

---

test system: ATP; test: switch fluorescence ratio, 500 uM ATP over buffer (Cy3 cluster intensity, sum of 5 cycles each) (fold (ratio)); higher = stronger signal-on switching upon ATP binding; sequences stand for … in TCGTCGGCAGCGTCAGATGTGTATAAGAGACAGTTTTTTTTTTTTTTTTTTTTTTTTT…TC; settings: aptamer strand: ATP DNA aptamer (quencher-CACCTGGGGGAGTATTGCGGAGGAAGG + anchor), 100 nM annealed; ATP concentration: 500 uM;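 note: ATP exposure 15 min at 22 °C before imaging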
measured endpoint: switch fluorescence ratio

GGGGTCAACG 0.963
CCGTCAGGCG 1.04
CCGGAAGGGG 1.06
TGTTTGGTGT 0.995

*Q* So what's the measured switch fluorescence ratio for this one? `AGTTTTAAGC`
*A* 1.01

*Q* Check `GGGGTCGTGT` too.
*A* 0.992

*Q* Check `TGAGGAACCT` too.
*A* 1.77

*Q* Check `AAGTAGTGGG` too.
*A* 0.96

*Q* Check `ATACGAGAAT` too.
*A* 1

*Q* Check `ATTTACTATA` too.
*A* 1.07

---

system: ATP; assay: switch fluorescence ratio, 500 uM ATP over buffer (Cy3 cluster intensity, sum of 5 cycles each) (fold (ratio)); higher = stronger signal-on switching upon ATP binding; sequences stand for … in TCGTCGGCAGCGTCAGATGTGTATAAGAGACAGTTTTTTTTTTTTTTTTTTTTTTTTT…TC; conditions: aptamer strand: ATP DNA aptamer (quencher-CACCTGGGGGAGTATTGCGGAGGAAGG + anchor), 100 nM annealed; ATP concentration: 500 uM;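 note: ATP exposure 15 min at 22 °C before imaging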
measured endpoint: switch fluorescence ratio

Observe how each entry below is paired with its result.
GGTAGTGGGG 0.987
CTTTTTTGGG 1.01

*Q* So what's the measured switch fluorescence ratio for this one? `TTTTAAGGAG`
*A* 1

*Q* Check `GATGATAGCG` too.
*A* 0.999

*Q* Check `CTGGTCTTGC` too.
*A* 1.04

*Q* Check `ATGTTATTGC` too.
*A* 1

*Q* Check `ACGTCTGGCT` too.
*A* 0.996

*Q* Check `ACACTGGGCA` too.
*A* 1.02

*Q* Check `GAATAACTGG` too.
*A* 0.993

---

tested on: ATP; assay: switch fluorescence ratio, 500 uM ATP over buffer (Cy3 cluster intensity, sum of 5 cycles each) (fold (ratio)); higher = stronger signal-on switching upon ATP binding; sequences stand for … in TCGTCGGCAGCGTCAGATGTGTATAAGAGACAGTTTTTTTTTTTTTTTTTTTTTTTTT…TC; conditions: aptamer strand: ATP DNA aptamer (quencher-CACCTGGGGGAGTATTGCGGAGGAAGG + anchor), 100 nM annealed; ATP concentration: 500 uM;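 note: ATP exposure 15 min at 22 °C before imaging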
measured endpoint: switch fluorescence ratio
# output: bare number, no unit

Observe how each entry below is paired with its result.
ATGTTGGTAT 1
CCGGGTTGGG 1.02
ATGTGGCTGA 1.02
AAGACACGC 1.04
TCAATTCAGG 1.01
GACGACGTGC 2.33
AATTCAACAG 1.01
AGGTGCCAG 0.962

*Q* So what's the measured switch fluorescence ratio for this one? `GGGGTGCGTG`
*A* 0.984

*Q* Check `CAGTTGCCAG` too.
*A* 0.953

*Q* Check `TTGGCGGGTG` too.
*A* 1.04

*Q* Check `TCAGGGGTGC` too.
*A* 1.09

*Q* Check `CAGTTGTGGG` too.
*A* 0.98

*Q* Check `TATAGCTACC` too.
*A* 1.13

*Q* Check `GGTCCCAAAA` too.
*A* 0.981

---

Measured switch fluorescence ratio values are reported for all entries that follow.
tested on: ATP; test: switch fluorescence ratio, 500 uM ATP over buffer (Cy3 cluster intensity, sum of 5 cycles each) (fold (ratio)); higher = stronger signal-on switching upon ATP binding; sequences stand for … in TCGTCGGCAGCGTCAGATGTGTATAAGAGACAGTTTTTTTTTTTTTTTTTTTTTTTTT…TC; conditions: aptamer strand: ATP DNA aptamer (quencher-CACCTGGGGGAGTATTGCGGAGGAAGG + anchor), 100 nM annealed; ATP concentration: 500 uM;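 note: ATP exposure 15 min at 22 °C before imaging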

CATCTGGGGG 1.04
ACTAGTGGGG 0.996
GGTGTGGTGC 1.02
GATACTCGTG 0.97
AGGGCCGGGC 0.962
TGGGTGCACG 0.996

*Q* So what's the measured switch fluorescence ratio for this one? `TAAGGTTGAC`
*A* 0.995

*Q* Check `TAAAAGTCCG` too.
*A* 1.06

*Q* Check `TGGTCTTCAT` too.
*A* 1

*Q* Check `TTGGGGTAAC` too.
*A* 1.01

---

Measured switch fluorescence ratio values are reported for all entries that follow.
system: ATP; experiment: switch fluorescence ratio, 500 uM ATP over buffer (Cy3 cluster intensity, sum of 5 cycles each) (fold (ratio)); higher = stronger signal-on switching upon ATP binding; sequences stand for … in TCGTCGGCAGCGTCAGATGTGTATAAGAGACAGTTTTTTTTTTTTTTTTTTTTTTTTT…TC; conditions: aptamer strand: ATP DNA aptamer (quencher-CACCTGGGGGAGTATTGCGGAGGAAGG + anchor), 100 nM annealed; ATP concentration: 500 uM;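 note: ATP exposure 15 min at 22 °C before imaging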
# output: bare number, no unit

Observe how each entry below is paired with its result.
TTGGGAGGGG 1.04
TTTGATAAAA 0.972
TTGGGGGTTA 1.02

*Q* So what's the measured switch fluorescence ratio for this one? `TGTTGTGGTC`
*A* 0.98

*Q* Check `GTGTTTCCTT` too.
*A* 1.02

*Q* Check `GACCATACGT` too.
*A* 1.49

*Q* Check `TTTTTCGGGA` too.
*A* 1

*Q* Check `TAATGCGTGG` too.
*A* 0.999

---

Measured switch fluorescence ratio values are reported for all entries that follow.
system: ATP; assay: switch fluorescence ratio, 500 uM ATP over buffer (Cy3 cluster intensity, sum of 5 cycles each) (fold (ratio)); higher = stronger signal-on switching upon ATP binding; sequences stand for … in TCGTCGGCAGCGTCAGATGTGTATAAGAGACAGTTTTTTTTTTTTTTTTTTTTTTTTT…TC; conditions: aptamer strand: ATP DNA aptamer (quencher-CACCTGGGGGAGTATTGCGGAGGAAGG + anchor), 100 nM annealed; ATP concentration: 500 uM;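 note: ATP exposure 15 min at 22 °C before imaging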
# output: bare number, no unit

Observe how each entry below is paired with its result.
TGGTTAGGGG 1.06
AACGATAGCA 1.08
TATAAGGGGC 0.997

*Q* So what's the measured switch fluorescence ratio for this one? `TTGGGGGCTT`
*A* 1

*Q* Check `ACGGCTGTGC` too.
*A* 1.02

---

tested on: ATP; experiment: switch fluorescence ratio, 500 uM ATP over buffer (Cy3 cluster intensity, sum of 5 cycles each) (fold (ratio)); higher = stronger signal-on switching upon ATP binding; sequences stand for … in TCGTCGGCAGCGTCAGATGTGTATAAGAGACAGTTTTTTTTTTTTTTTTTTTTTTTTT…TC; conditions: aptamer strand: ATP DNA aptamer (quencher-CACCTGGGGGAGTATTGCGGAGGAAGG + anchor), 100 nM annealed; ATP concentration: 500 uM;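 note: ATP exposure 15 min at 22 °C before imaging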
measured endpoint: switch fluorescence ratio
# output: bare number, no unit

TGTGGGGTGT 1.04

*Q* So what's the measured switch fluorescence ratio for this one? `TTGCTAAATG`
*A* 1

*Q* Check `TATCCTGGCT` too.
*A* 0.996

*Q* Check `GCCCTGTATT` too.
*A* 1.02

*Q* Check `ATTTTTAGCA` too.
*A* 0.998

*Q* Check `AAGATGTAAT` too.
*A* 1.01

*Q* Check `TATATTTTAT` too.
*A* 0.982

*Q* Check `ATAATCTGCG` too.
*A* 1.01

---

system: ATP; assay: switch fluorescence ratio, 500 uM ATP over buffer (Cy3 cluster intensity, sum of 5 cycles each) (fold (ratio)); higher = stronger signal-on switching upon ATP binding; sequences stand for … in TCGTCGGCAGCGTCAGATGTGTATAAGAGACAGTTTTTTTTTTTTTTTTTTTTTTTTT…TC; conditions: aptamer strand: ATP DNA aptamer (quencher-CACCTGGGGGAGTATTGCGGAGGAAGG + anchor), 100 nM annealed; ATP concentration: 500 uM;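 note: ATP exposure 15 min at 22 °C before imaging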
measured endpoint: switch fluorescence ratio
# output: bare number, no unit

ATAACCGCGG 0.994

*Q* So what's the measured switch fluorescence ratio for this one? `CCTTTTACTT`
*A* 1.03

*Q* Check `AGGGGTCGGC` too.
*A* 0.986

*Q* Check `TATGATATGG` too.
*A* 1.04

*Q* Check `GAACGGCTCG` too.
*A* 1.02
